STUDY SYSTEM: Serine/threonine-protein kinase B-raf (Mus musculus, UniProt P28028, V600E)
Sequence (P28028 whole entry, looked up, stated change not applied): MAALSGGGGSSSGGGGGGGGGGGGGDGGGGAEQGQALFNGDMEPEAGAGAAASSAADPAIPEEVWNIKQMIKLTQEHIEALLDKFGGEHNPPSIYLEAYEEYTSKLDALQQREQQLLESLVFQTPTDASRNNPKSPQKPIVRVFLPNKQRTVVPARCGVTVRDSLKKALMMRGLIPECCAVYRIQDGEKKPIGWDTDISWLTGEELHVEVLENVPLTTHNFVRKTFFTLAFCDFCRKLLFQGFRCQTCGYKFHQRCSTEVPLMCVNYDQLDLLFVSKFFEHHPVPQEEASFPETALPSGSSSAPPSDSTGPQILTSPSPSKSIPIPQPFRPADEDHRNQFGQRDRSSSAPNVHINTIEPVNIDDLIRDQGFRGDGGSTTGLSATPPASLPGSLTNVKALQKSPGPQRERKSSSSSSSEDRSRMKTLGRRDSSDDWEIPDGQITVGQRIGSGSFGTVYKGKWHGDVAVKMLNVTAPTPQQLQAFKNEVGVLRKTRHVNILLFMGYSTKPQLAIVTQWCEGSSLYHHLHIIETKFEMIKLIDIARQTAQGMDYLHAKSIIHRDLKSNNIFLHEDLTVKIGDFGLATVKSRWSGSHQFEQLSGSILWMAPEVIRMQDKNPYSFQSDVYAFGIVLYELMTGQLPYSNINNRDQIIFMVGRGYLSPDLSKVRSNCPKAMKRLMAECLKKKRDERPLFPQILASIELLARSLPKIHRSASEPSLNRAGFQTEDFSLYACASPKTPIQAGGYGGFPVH
ASSAY OVERVIEW: Inhibition of mouse full length GST-tagged BRAF V600E mutant using recombinant human full length N-terminal His-tagged MEK1 as substrate preincubated for 1 hr followed by substrate addition measured after 25 mins by Nu-page gel-based phosphor screen analysis
pIC50: −log10 of the molar value.
RECORDED ENDPOINT: pIC50

molecule=O=C(Nc1ccc2[nH]ncc2c1)c1cccc(NC(=O)c2ccccn2)c1 recorded_endpoint=pIC50 measured_result=5.39
molecule=O=C(Nc1ccc2[nH]ccc2c1)c1cccc(NC(=O)c2ccccn2)c1 recorded_endpoint=pIC50 measured_result=5.45
molecule=CC(C)(C)c1ccc(C(=O)Nc2cccc(C(=O)Nc3ccc4[nH]ncc4c3)c2)cc1 recorded_endpoint=pIC50 measured_result=6.12
molecule=O=C(Nc1cccc(C(=O)Nc2ccc3[nH]ncc3c2)c1)c1ccc(C(F)(F)F)cc1 recorded_endpoint=pIC50 measured_result=6.74
molecule=O=C(Nc1ccc2[nH]ncc2c1)c1cccc(NC(=O)c2ccc(Br)cn2)c1 recorded_endpoint=pIC50 measured_result=6.34

a = O=C(Nc1ccc2[nH]ccc2c1)c1cccc(NC(=O)c2cccc(Cl)n2)c1
b = O=C(Nc1cccc(C(=O)Nc2ccc3[nH]ncc3c2)c1)c1ccc(Cl)cc1
Problem: Could you point out whether the larger pIC50 belongs to a or to b ? Reply with the label of the item you choose.
Solution: b

* * *

Test system: A-375
ASSAY OVERVIEW: Antiproliferative activity against human A375 cells harboring BRAF V600E mutant after 48 hrs by MTT assay
Assay type: functional, cell-based
MEASUREMENT PARAMETERS: A-375, 48 h
pIC50: −log10 of the molar value.
RECORDED ENDPOINT: pIC50

molecule=O=C(Nc1ccc2[nH]ccc2c1)c1cccc(NC(=O)c2ccccn2)c1 study_system=A-375 recorded_endpoint=pIC50 measured_result=5.24

P = O=C(Nc1ccc2[nH]ccc2c1)c1cccc(NC(=O)c2cccc(Cl)n2)c1
Q = O=C(Nc1cccc(C(=O)Nc2ccc3[nH]ncc3c2)c1)c1ccc(C(F)(F)F)cc1
Problem: Looking at P and Q , which one comes out lower in pIC50 terms? Reply with the label of the item you choose.
Solution: P

* * *

Test system: A-375
ASSAY OVERVIEW: Antiproliferative activity against human A375 cells harboring BRAF V600E mutant after 48 hrs by MTT assay
Assay type: functional, cell-based
MEASUREMENT PARAMETERS: A-375, 48 h
pIC50: −log10 of the molar value.
RECORDED ENDPOINT: pIC50

These solved cases illustrate the format of a correct answer.
compound=CC(C)(C)c1ccc(C(=O)Nc2cccc(C(=O)Nc3ccc4[nH]ncc4c3)c2)cc1 measured_result=5.55
compound=O=C(Nc1cccc(C(=O)Nc2ccc3[nH]ccc3c2)c1)c1ccccc1 measured_result=5.19
compound=O=C(Nc1ccc2[nH]ncc2c1)c1cccc(NC(=O)c2cc(Cl)ccn2)c1 measured_result=5.34
compound=O=C(Nc1ccc2[nH]ncc2c1)c1cccc(NC(=O)c2ccc(Br)cn2)c1 measured_result=5.12
compound=O=C(Nc1cccc(C(=O)Nc2ccc3[nH]ccc3c2)c1)c1ccc(Cl)cc1 measured_result=5.17
compound=Cc1cccc(C(=O)Nc2cccc(C(=O)Nc3ccc4[nH]ncc4c3)c2)n1 measured_result=5.13

a = O=C(Nc1cccc(C(=O)Nc2ccc3[nH]ncc3c2)c1)c1ccccc1
b = O=C(Nc1cccc(C(=O)Nc2ccc3[nH]ncc3c2)c1)c1ccc(Br)cc1
c = CNC(=O)c1cc(Oc2ccc(NC(=O)Nc3ccc(Cl)c(C(F)(F)F)c3)cc2)ccn1 [SORAFENIB]
Problem: Order the records so the highest pIC50 appears first and the lowest last. List the labels according to the requested ordering.
Solution: c, b, a
(c: 5.47, b: 5.24, a: 5.04)

* * *

System: HCT-116
ASSAY OVERVIEW: Antiproliferative activity against wild type BRAF expressing human HCT116 cells after 48 hrs by MTT assay
Assay type: functional, cell-based
MEASUREMENT PARAMETERS: HCT-116, 48 h
RECORDED ENDPOINT: IC50 (µM)

These solved cases illustrate the format of a correct answer.
molecule=O=C(Nc1ccc2[nH]ncc2c1)c1cccc(NC(=O)c2cccc(Cl)n2)c1 recorded_endpoint=IC50 u=µM measured_result=24.9
molecule=O=C(Nc1ccc2[nH]ccc2c1)c1cccc(NC(=O)c2cccc(Cl)n2)c1 recorded_endpoint=IC50 u=µM measured_result=35.5
molecule=CNC(=O)c1cc(Oc2ccc(NC(=O)Nc3ccc(Cl)c(C(F)(F)F)c3)cc2)ccn1 recorded_endpoint=IC50 u=µM measured_result=23.3
molecule=O=C(Nc1cccc(C(=O)Nc2ccc3[nH]ncc3c2)c1)c1cccc(Cl)c1 recorded_endpoint=IC50 u=µM measured_result=26.2
molecule=O=C(Nc1cccc(C(=O)Nc2ccc3[nH]ncc3c2)c1)c1ccccc1 recorded_endpoint=IC50 u=µM measured_result=30.9
molecule=O=C(Nc1ccc2[nH]ccc2c1)c1cccc(NC(=O)c2ccccn2)c1 recorded_endpoint=IC50 u=µM measured_result=23.8
molecule=O=C(Nc1cccc(C(=O)Nc2ccc3[nH]ncc3c2)c1)c1ccc(Br)cc1 recorded_endpoint=IC50 u=µM measured_result=29.2
molecule=CC(C)(C)c1ccc(C(=O)Nc2cccc(C(=O)Nc3ccc4[nH]ncc4c3)c2)cc1 recorded_endpoint=IC50 u=µM measured_result=26.2

P = O=C(Nc1cccc(C(=O)Nc2ccc3[nH]ncc3c2)c1)c1cccc(F)c1
Q = O=C(Nc1cccc(C(=O)Nc2ccc3[nH]ncc3c2)c1)c1ccc(F)cc1
Problem: Could you point out whether the larger IC50 belongs to P or to Q ? Reply with the label of the item you choose.
Solution: Q
(Q: 36.2 µM, P: 20.5 µM)

A = O=C(Nc1cccc(C(=O)Nc2ccc3[nH]ccc3c2)c1)c1ccccc1
B = O=C(Nc1cccc(C(=O)Nc2ccc3[nH]ncc3c2)c1)c1ccc(Cl)cc1
Problem: Looking at A and B , which one comes out lower in IC50 terms? Reply with the label of the item you choose.
Solution: A
(A: 21.2 µM, B: 32.5 µM)

I = Cc1cccc(C(=O)Nc2cccc(C(=O)Nc3ccc4[nH]ncc4c3)c2)n1
II = O=C(Nc1ccc2[nH]ncc2c1)c1cccc(NC(=O)c2ccccn2)c1
Problem: Could you point out whether the larger IC50 belongs to I or to II ? Reply with the label of the item you choose.
Solution: II

* * *

STUDY SYSTEM: Serine/threonine-protein kinase B-raf (Mus musculus, UniProt P28028, V600E)
ASSAY OVERVIEW: Inhibition of mouse full length GST-tagged BRAF V600E mutant using recombinant human full length N-terminal His-tagged MEK1 as substrate preincubated for 1 hr followed by substrate addition measured after 25 mins by Nu-page gel-based phosphor screen analysis
RECORDED ENDPOINT: IC50 (nM)

a = O=C(Nc1ccc2[nH]ncc2c1)c1cccc(NC(=O)c2cccc(Cl)n2)c1
b = O=C(Nc1cccc(C(=O)Nc2ccc3[nH]ncc3c2)c1)c1ccc(Br)cc1
Problem: Looking at a and b , which one comes out lower in IC50 terms? Reply with the label of the item you choose.
Solution: a
(a: 1050 nM, b: 2780 nM)

a = O=C(Nc1ccc2[nH]ncc2c1)c1cccc(NC(=O)c2cc(Cl)ccn2)c1
b = O=C(Nc1cccc(C(=O)Nc2ccc3[nH]ccc3c2)c1)c1ccc(Cl)cc1
c = O=C(Nc1cccc(C(=O)Nc2ccc3[nH]ncc3c2)c1)c1cccc(Cl)c1
Problem: Order each entry by recorded IC50, climbing from the minimum. List the labels according to the requested ordering.
Solution: a, b, c

* * *

Test system: A-375
ASSAY OVERVIEW: Antiproliferative activity against human A375 cells harboring BRAF V600E mutant after 48 hrs by MTT assay
Type: functional, cell-based
MEASUREMENT PARAMETERS: A-375, 48 h
RECORDED ENDPOINT: IC50 (µM)

molecule=O=C(Nc1ccc2[nH]ncc2c1)c1cccc(NC(=O)c2ccccn2)c1 measured_result=8.29
molecule=O=C(Nc1cccc(C(=O)Nc2ccc3[nH]ncc3c2)c1)c1ccc(F)cc1 measured_result=7.15
molecule=O=C(Nc1cccc(C(=O)Nc2ccc3[nH]ccc3c2)c1)c1ccc(Oc2ccccc2)cc1 measured_result=10.5
molecule=O=C(Nc1cccc(C(=O)Nc2ccc3[nH]ncc3c2)c1)c1ccc(Oc2ccccc2)cc1 measured_result=9.45
molecule=O=C(Nc1cccc(C(=O)Nc2ccc3[nH]ncc3c2)c1)c1cccc(F)c1 measured_result=12.2
molecule=O=C(Nc1cccc(C(=O)Nc2ccc3[nH]ncc3c2)c1)c1ccc(Cl)cc1 measured_result=7.62
molecule=O=C(Nc1cccc(C(=O)Nc2ccc3[nH]ncc3c2)c1)c1cccc(Cl)c1 measured_result=9.87

* * *

System: HCT-116
ASSAY OVERVIEW: Antiproliferative activity against wild type BRAF expressing human HCT116 cells after 48 hrs by MTT assay
Assay type: functional, cell-based
MEASUREMENT PARAMETERS: HCT-116, 48 h
RECORDED ENDPOINT: IC50 (µM)

These solved cases illustrate the format of a correct answer.
molecule=O=C(Nc1cccc(C(=O)Nc2ccc3[nH]ncc3c2)c1)c1ccc(Oc2ccccc2)cc1 measured_result=37.4
molecule=O=C(Nc1ccc2[nH]ncc2c1)c1cccc(NC(=O)c2cc(Cl)ccn2)c1 measured_result=19.7
molecule=O=C(Nc1cccc(C(=O)Nc2ccc3[nH]ncc3c2)c1)c1ccc(C(F)(F)F)cc1 measured_result=18.7
molecule=O=C(Nc1ccc2[nH]ncc2c1)c1cccc(NC(=O)c2ccc(Br)cn2)c1 measured_result=22.2

I = O=C(Nc1cccc(C(=O)Nc2ccc3[nH]ccc3c2)c1)c1ccc(Cl)cc1
II = O=C(Nc1cccc(C(=O)Nc2ccc3[nH]ccc3c2)c1)c1ccc(Oc2ccccc2)cc1
Problem: Looking at I and II , which one comes out lower in IC50 terms? Reply with the label of the item you choose.
Solution: I
(I: 22.3 µM, II: 35.2 µM)
